tested on: RAW264.7; experiment: Cytotoxicity against mouse RAW264.7 cells assessed as effect on cell viability measured after 12 hrs by MTT assay; format: functional

- compound: "CCCCCC(CC(=O)OC)c1c2c(c(O)c3c1O[C@H](C)[C@@H](C)C3=O)C=CC(C)(C)O2 (some centres undefined)"
  assayed system: "RAW264.7"
  CC50: "687 µM"
- compound: "CCCC1CC(=O)Oc2c(C(=O)[C@H](C)[C@H](C)O)c(O)c3c(c21)OC(C)(C)C=C3 (some centres undefined)"
  assayed system: "RAW264.7"
  CC50: "552 µM"
- compound: "COC(=O)C[C@@H](c1ccccc1)c1c(O)c2c(c3c1OC(C)(C)C=C3)O[C@H](C)[C@H](C)C2=O"
  assayed system: "RAW264.7"
  CC50: "601 µM"
- compound: "C[C@@H]1Oc2c3c(c([C@@H](CC(=O)O)c4ccccc4)c(O)c2C(=O)[C@@]1(C)O)OC(C)(C)C=C3"
  assayed system: "RAW264.7"
  CC50: "588 µM"
